Test system: KM-20L2
Experimental details: NCI tumour cell line growth inhibition, 48 h
The source made the active and inactive calls. No stated cut-off is given here; in the data, active = GI50 up to about 1.1 µM and inactive = higher.
Below: a set of entries, each annotated with reported GI50.

{"Molecule": "CC1=NN(C(=O)Cc2ccccc2)C(=O)/C1=C\\c1ccc(O)cc1", "GI50": "> 100 µM (inactive)"}
{"Molecule": "CCOC(=O)NC(=O)c1cn(C2CCCCC2)c(=O)n(C)c1=O", "GI50": "> 100 µM (inactive)"}
{"Molecule": "OCC1OC(n2cnc3c2NC=NC[C@H]3O)CC1O (stereo partly specified)", "GI50": "> 500 µM (inactive)"}
{"Molecule": "CC1=CC(=O)N2C(OC[C@@H]2c2ccccc2)O1 (stereo partly specified)", "GI50": "> 100 µM (inactive)"}
{"Molecule": "O=C1C(Cl)C(c2ccc([N+](=O)[O-])cc2)N1n1cnc2ccccc2c1=O (stereo unspecified)", "GI50": "> 100 µM (inactive)"}
{"Molecule": "CC1=C(C(=O)Nc2ccccc2)C(c2cccc3ccccc23)C(C(=O)Nc2ccccc2)=C(C)N1", "GI50": "19.3 µM (inactive)"}
{"Molecule": "C[C@]12CCC3[C@@H](CCC45OC4C(=O)CC[C@]35C)C1Cc1cnn(-c3ccc(F)cc3)c1N2 (stereo partly specified)", "GI50": "22.6 µM (inactive)"}
{"Molecule": "N#CCC(=O)N1CCCOCCC1", "GI50": "> 100 µM (inactive)"}
{"Molecule": "CC1=C(C(=O)Nc2cccc(C(F)(F)F)c2)C(c2ccccc2F)C(C(=O)Nc2cccc(C(F)(F)F)c2)=C(C)N1", "GI50": "4.51 µM (inactive)"}
{"Molecule": "Oc1ncnc2c1CCCN2", "GI50": "> 100 µM (inactive)"}
{"Molecule": "CC1C2C=C(O)C(=O)C(C2=O)C1c1ccccc1 (stereo unspecified)", "GI50": "38.6 µM (inactive)"}

Data provenance is ChEMBL document CHEMBL1201862.
